- Tested on: wheat germ agglutinin (Triticum aestivum), Alexa647-labelled
- method-notes: wheat germ agglutinin binders on compound microarrays, profiling panel, artefact control for SMM control-protein annotation, biochemical, small-molecule microarray, 635/667 nm fluorescence (AID 1140);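 further: score merges 667 nm feature emission with signal to noise over triplicate slides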
- settings: WGA-A647 binding, 635 nm fluorescence, higher = more signal
property-name: composite z-score
One number for each entry.

smiles-notation: COc1ccc([Si](C)(C)[C@H]2[C@H](CCn3cc([C@H](O)c4ccccc4)nn3)O[C@@]3(C(=O)N(Cc4ccc(N5CCOC5=O)cc4)c4ccccc43)[C@@H]2C)cc1
recorded-result: -0.0383
--
smiles-notation: CCCN1C(=O)[C@]2(Cc3ccccc3)N=C(c3ccc(OCCCO)cc3)O[C@@H]2c2ccccc21
recorded-result: 0.751

Can you give me composite z-score for all of these, one by one?
1. Cc1ccc(S[C@]2(C(=O)NC(C)C)CC(=O)N(Cc3ccccc3C(F)(F)F)[C@@H]2c2ccc(CO)cc2I)cc1
2. CCCC=C(CCC)[C@@H](NP(=O)(c1ccccc1)c1ccccc1)c1ccc(C(F)(F)F)cc1

-0.229
0.255

----------
- method-notes: cell viability in Huh7 cells, primary screen, cytotoxicity control for HCV replication inhibitor project, CellTiter-Glo luminescence, basal, 48 h (AID 1143);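 further: Huh7 hepatoma cells carrying a hepatitis C replication reporter with no stimulus; test concentration not given here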
- settings: Huh7 HCV replicon, higher = more signal, called active from +8 up or from −8 down
Activity calls are given as the source filed them.
Provide the recorded z-score for the entries that follow.

Below: 2 molecules and their reported z-score.
smiles-notation: C=CCOC(=O)[C@@H]1[C@H]2C(=O)O[C@H](c3ccccc3)[C@H](c3ccccc3)N2[C@H](c2ccc(OCCOC(=O)[C@H]3C[C@H]4C(=O)N[C@@H](CCCCNC(C)=O)C(=O)N4[C@H]3c3cccc(OCCO)c3)cc2)[C@@]12C(=O)Nc1ccc(I)cc12
z-score: -0.495 (inactive)
//
smiles-notation: CC(C)(C)OC(=O)CC[C@]1(C(=O)NCCN2CCOCC2)N=C(c2ccc(OCCCO)cc2)O[C@H]1c1ccccc1
z-score: 0.268 (inactive)

Read the next record carefully.
Return reported z-score; argument: `CN(C)CCCNC(=O)[C@@H]1c2ccccc2C(=O)N(Cc2ccc(OC(F)(F)F)cc2)[C@H]1c1ccc(CO)cc1`
-1.35 (inactive)

----------
- method-notes: PSAC antagonists in infected red cells, primary screen, cell-based, P. falciparum Indochina, OD700, 18 h (AID 1157)
- settings: P. falciparum Indochina infected erythrocytes, osmotic lysis OD700, 18 h; higher = more signal, called active from +8 up or from −8 down
Activity calls are given as the source filed them.
property-name: z-score

Use these answered entries as a reference point.
compound: C=CCOC(=O)[C@H]1[C@@H]2C(=O)O[C@@H](c3ccccc3)[C@@H](c3ccccc3)N2[C@@H](c2ccc(OCCOC(=O)[C@H]3C[C@H]4C(=O)N[C@@H](Cc5ccccc5)C(=O)N4[C@H]3c3cccc(OCCO)c3)cc2)[C@]12C(=O)Nc1ccc(I)cc12
z-score: 0.84 (inactive)
--
compound: COc1cc(CO)cc(I)c1O[C@H]1C=C(C(=O)NCCO)C[C@@H](N(Cc2ccc(F)cc2)C(=O)C2CCCO2)[C@@H]1O (stereo not given in full)
z-score: 0.23 (inactive)
--
compound: CN(C)CCCN1C(=O)[C@@]2(c3ccc([N+](=O)[O-])cc3)CC(=O)N(CC34CC5CC(CC(C5)C3)C4)[C@@H]2c2ccc(CO)cc21
z-score: -0.405 (inactive)
--
compound: COC(=O)C(CC#Cc1ccc2c(c1)[C@]1(C(=O)N2)[C@H](C(=O)O)[C@H]2C(=O)O[C@H](c3ccccc3)[C@H](c3ccccc3)N2[C@@H]1c1ccccc1OCCO)C(=O)OC
z-score: -0.008 (inactive)

Field: next compound
Reported z-score, compound `COC(=O)[C@@]1(Cc2ccc(OC)cc2)[C@H]2c3cc(C(=O)N(C)C)n(CCc4c[nH]c5ccc(O)cc45)c3C[C@H]2CN1C(=O)c1ccccc1` : ____
1.23 (inactive)
